Tested on: Escherichia coli TOP10
Assay: shrunken log2 fold change of peptide-encoding DNA abundance (4.5 h post-induction vs induction); higher = less antimicrobial activity (less host growth inhibition)
Conditions: time post-induction: 4.5 h; library: site-saturation at positions 5, 18, 19, 20
Hi, to clarify the labels: Criterion met covers shrunken log2 fold change from 0.1 upward, Criterion not met covers anything below 0.1.

Inquiry: // inclusive: shrunken log2 fold change at least 0.1? input: RRIRRRPPRLPRPRPRPHTVPRP
Reply text: Criterion not met

Inquiry: // inclusive: shrunken log2 fold change at least 0.1? input: RRIRTRPPRLPRPRPRPLGMPRP
Reply text: Criterion met

Inquiry: // inclusive: shrunken log2 fold change at least 0.1? input: RRIRNRPPRLPRPRPRPMQTPRP
Reply text: Criterion not met

Inquiry: // inclusive: shrunken log2 fold change at least 0.1? input: RRIRARPPRLPRPRPRPLMAPRP
Reply text: Criterion met

Inquiry: // inclusive: shrunken log2 fold change at least 0.1? input: RRIRWRPPRLPRPRPRPGKRPRP
Reply text: Criterion met

Inquiry: // inclusive: shrunken log2 fold change at least 0.1? input: RRIRHRPPRLPRPRPRPNPGPRP
Reply text: Criterion met

Inquiry: // inclusive: shrunken log2 fold change at least 0.1? input: RRIRDRPPRLPRPRPRPLTVPRP
Reply text: Criterion not met

Inquiry: // inclusive: shrunken log2 fold change at least 0.1? input: RRIRARPPRLPRPRPRPMDIPRP
Reply text: Criterion met

Inquiry: // inclusive: shrunken log2 fold change at least 0.1? input: RRIRSRPPRLPRPRPRPHSFPRP
Reply text: Criterion met

Inquiry: // inclusive: shrunken log2 fold change at least 0.1? input: RRIRCRPPRLPRPRPRPFTAPRP
Reply text: Criterion not met

Inquiry: // inclusive: shrunken log2 fold change at least 0.1? input: RRIRRRPPRLPRPRPRPTAEPRP
Reply text: Criterion not met

Inquiry: // inclusive: shrunken log2 fold change at least 0.1? input: RRIRDRPPRLPRPRPRPLPNPRP
Reply text: Criterion not met

Inquiry: // inclusive: shrunken log2 fold change at least 0.1? input: RRIRSRPPRLPRPRPRPVCFPRP
Reply text: Criterion met

Inquiry: // inclusive: shrunken log2 fold change at least 0.1? input: RRIRKRPPRLPRPRPRPVEQPRP
Reply text: Criterion met

Inquiry: // inclusive: shrunken log2 fold change at least 0.1? input: RRIRERPPRLPRPRPRPIWQPRP
Reply text: Criterion not met

====

Exercise: state measured shrunken log2 fold change for each of the sequences provided.
System: Escherichia coli TOP10;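 note: peptides expressed intracellularly from a pBAD plasmid library in pooled LB shake-flask culture, induced with 0.3% L-arabinose, DNA abundance read by NGS, three biological replicates, DESeq2 with apeglm shrinkage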
Assay: shrunken log2 fold change of peptide-encoding DNA abundance (4.5 h post-induction vs induction); higher = less antimicrobial activity (less host growth inhibition)
Details: time post-induction: 4.5 h; library: site-saturation at positions 5, 18, 19, 20
Just the number, please.

Inquiry: What measured shrunken log2 fold change goes with RRIRARPPRLPRPRPRPKIHPRP ?
Reply text: -0.0619

Inquiry: What measured shrunken log2 fold change goes with RRIRFRPPRLPRPRPRPSVKPRP ?
Reply text: -0.347

Inquiry: What measured shrunken log2 fold change goes with RRIRWRPPRLPRPRPRPWFHPRP ?
Reply text: -0.125

Inquiry: What measured shrunken log2 fold change goes with RRIRGRPPRLPRPRPRPCDVPRP ?
Reply text: -0.014

Inquiry: What measured shrunken log2 fold change goes with RRIRQRPPRLPRPRPRPDKCPRP ?
Reply text: 0.272

Inquiry: What measured shrunken log2 fold change goes with RRIRFRPPRLPRPRPRPGTIPRP ?
Reply text: -0.173

Inquiry: What measured shrunken log2 fold change goes with RRIRFRPPRLPRPRPRPKRFPRP ?
Reply text: 0.0111

Inquiry: What measured shrunken log2 fold change goes with RRIRNRPPRLPRPRPRPDMQPRP ?
Reply text: -0.0295

Inquiry: What measured shrunken log2 fold change goes with RRIRARPPRLPRPRPRPNFSPRP ?
Reply text: -0.0677

Inquiry: What measured shrunken log2 fold change goes with RRIRLRPPRLPRPRPRPDDTPRP ?
Reply text: -0.0691

Inquiry: What measured shrunken log2 fold change goes with RRIRVRPPRLPRPRPRPNDNPRP ?
Reply text: -0.481

Inquiry: What measured shrunken log2 fold change goes with RRIRERPPRLPRPRPRPWWQPRP ?
Reply text: -0.0206

Inquiry: What measured shrunken log2 fold change goes with RRIRKRPPRLPRPRPRPFMTPRP ?
Reply text: 0.168

Inquiry: What measured shrunken log2 fold change goes with RRIRNRPPRLPRPRPRPCPAPRP ?
Reply text: 0.203

Inquiry: What measured shrunken log2 fold change goes with RRIRRRPPRLPRPRPRPSKLPRP ?
Reply text: -0.0224
